Quick list: IC50 per entry.
# Experimental system: PPO2 R128Q ΔG210 (Amaranthus tuberculatus, UniProt Q0NZW9, DEL210-210/R128Q)
# Sequence (Q0NZW9 with tags, fused parts or gaps R128Q/DEL210-210): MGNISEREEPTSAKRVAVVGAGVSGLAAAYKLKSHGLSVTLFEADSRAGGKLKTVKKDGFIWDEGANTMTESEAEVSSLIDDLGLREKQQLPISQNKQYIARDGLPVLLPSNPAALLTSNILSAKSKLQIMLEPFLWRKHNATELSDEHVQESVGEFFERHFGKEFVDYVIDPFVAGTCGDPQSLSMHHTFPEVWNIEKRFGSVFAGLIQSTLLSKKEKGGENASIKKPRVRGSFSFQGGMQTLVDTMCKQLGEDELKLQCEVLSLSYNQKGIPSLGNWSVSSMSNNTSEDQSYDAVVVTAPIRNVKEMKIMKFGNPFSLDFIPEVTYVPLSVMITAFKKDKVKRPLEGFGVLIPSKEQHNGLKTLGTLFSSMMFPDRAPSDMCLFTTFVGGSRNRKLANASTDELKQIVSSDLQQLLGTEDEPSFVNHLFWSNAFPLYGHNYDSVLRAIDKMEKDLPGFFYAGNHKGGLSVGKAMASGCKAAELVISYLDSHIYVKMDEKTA
# Experimental protocol: biochemical
Please state the figure in µM; there is no need to write the unit.

{"Compound": "CCOC(=O)C(C)OC(=O)c1cc(Oc2ccc(C(F)(F)F)cc2Cl)ccc1[N+](=O)[O-] (stereo not shown)", "Experimental system": "PPO2 R128Q ΔG210 (Amaranthus tuberculatus, UniProt Q0NZW9, DEL210-210/R128Q)", "Readout type": "IC50", "Val": 1.75}

Endpoint output: IC50 of `C#CCN1C(=O)C(F)(F)Oc2cc(F)c(-n3c(=O)n(C)c(=S)n(C)c3=O)cc21` . Value?
0.0145

---

# Experimental system: R128(X) ΔG210 double-mutant enzymes
# Type: biochemical, Amaranthus tuberculatus
# Test settings: read-out: IC50 values
pIC50: −log10 of the molar value.
Readout type: pIC50

Endpoint output: pIC50 of CCOC(=O)C(C)OC(=O)c1cc(Oc2ccc(C(F)(F)F)cc2Cl)ccc1[N+](=O)[O-] (stereo not shown) [Lactofen, lactofen] . Value?
< 5.00
